- SYSTEM NAME: human α5β1 integrin (human, UniProt P08648 42-1049; P05556 21-798)
- Sequence (P08648 42-1049, chain 1 of 2): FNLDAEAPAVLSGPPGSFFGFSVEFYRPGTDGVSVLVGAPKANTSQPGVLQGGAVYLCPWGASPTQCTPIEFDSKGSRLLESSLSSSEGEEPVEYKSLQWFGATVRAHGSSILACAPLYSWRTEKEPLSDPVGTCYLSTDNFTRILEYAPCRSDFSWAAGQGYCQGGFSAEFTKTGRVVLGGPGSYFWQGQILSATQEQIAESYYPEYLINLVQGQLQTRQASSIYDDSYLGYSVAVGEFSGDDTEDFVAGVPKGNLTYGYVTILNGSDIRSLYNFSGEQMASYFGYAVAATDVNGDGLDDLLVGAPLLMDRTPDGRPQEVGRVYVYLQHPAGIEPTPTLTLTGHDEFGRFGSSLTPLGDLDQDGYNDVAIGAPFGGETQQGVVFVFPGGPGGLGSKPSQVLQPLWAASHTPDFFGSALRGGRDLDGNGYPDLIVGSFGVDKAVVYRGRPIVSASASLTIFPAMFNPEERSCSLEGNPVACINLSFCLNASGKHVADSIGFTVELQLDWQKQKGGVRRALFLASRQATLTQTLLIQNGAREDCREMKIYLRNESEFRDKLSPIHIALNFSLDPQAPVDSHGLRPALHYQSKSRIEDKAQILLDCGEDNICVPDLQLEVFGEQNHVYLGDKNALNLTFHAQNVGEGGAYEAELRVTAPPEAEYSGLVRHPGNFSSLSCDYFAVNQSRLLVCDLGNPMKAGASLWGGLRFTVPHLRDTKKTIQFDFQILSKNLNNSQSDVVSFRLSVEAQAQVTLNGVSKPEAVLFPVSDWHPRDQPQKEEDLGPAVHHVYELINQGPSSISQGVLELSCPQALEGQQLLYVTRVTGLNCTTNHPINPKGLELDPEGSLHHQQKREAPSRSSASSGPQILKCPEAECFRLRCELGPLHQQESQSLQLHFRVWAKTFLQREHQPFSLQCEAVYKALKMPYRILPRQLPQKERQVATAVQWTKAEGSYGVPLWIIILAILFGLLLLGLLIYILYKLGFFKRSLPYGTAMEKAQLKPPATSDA
- Sequence (P05556 21-798, chain 2 of 2): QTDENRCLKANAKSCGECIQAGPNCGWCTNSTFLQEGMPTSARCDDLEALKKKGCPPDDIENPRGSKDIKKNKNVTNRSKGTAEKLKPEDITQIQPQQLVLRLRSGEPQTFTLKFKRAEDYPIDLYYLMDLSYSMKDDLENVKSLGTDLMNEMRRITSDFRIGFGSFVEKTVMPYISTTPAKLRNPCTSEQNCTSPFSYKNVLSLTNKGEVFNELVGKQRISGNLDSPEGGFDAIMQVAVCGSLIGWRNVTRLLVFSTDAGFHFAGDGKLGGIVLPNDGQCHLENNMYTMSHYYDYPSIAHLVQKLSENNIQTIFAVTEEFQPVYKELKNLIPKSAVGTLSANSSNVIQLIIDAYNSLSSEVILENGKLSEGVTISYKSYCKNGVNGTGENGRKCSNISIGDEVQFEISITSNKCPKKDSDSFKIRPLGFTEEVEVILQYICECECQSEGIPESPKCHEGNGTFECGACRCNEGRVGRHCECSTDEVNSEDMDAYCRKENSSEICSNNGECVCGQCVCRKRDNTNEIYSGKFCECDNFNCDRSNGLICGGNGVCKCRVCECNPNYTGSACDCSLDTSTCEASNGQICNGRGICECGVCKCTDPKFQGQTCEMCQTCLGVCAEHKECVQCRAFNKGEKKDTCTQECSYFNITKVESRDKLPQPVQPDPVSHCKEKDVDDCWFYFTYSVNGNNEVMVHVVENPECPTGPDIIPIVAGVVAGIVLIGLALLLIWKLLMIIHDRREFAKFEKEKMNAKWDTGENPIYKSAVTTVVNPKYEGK
- METHOD DESCRIPTION: cell-based or functional assay
MEASURED PROPERTY: % Inhibition of cell adhesion, n = 1 (K562 on full length FN, supernatant 1 in 4)
Write down the value, and be sure its unit follows.

Fill in the blank: the reported % Inhibition of cell adhesion, n = 1 (K562 on full length FN, supernatant 1 in 4) of 2G2.2B5 (antibody, IgG4, V domains shown, Isotype IgG4/k) VH: QVQLVESGGGVVQPGRSLRLSCAASGFTFSSYGMHWVRQAPGKGLEWVAVIWYDGSNKYYADSVKGRFTISRDNSKNTLYLQMNSLRAEDTAVYYCARDGAARRGDYYYYYGMDVWGQGTTVTVSS VL: EIVMTQSPLSLPVTPGEPASISCRSGQSLLQSTGSNYLAWYLQKPGQSPQLLIYLGSNRASGVPDRFSGSGSGTDFTLKISRVEAEDVGVYYCMQALQTPFTFGPGTKVDIK is ____.
100%

Also, 3F12.4A1 (antibody, IgG2, V domains shown, Isotype IgG2/k) VH: QVQLVESGGGVVQPGRSLRLSCAASGFTFSSYGMHWVRQAPGKGLEWVAVIWYDGTNKYYADSVKGRFTISRDNSKNTLYLQMNSLTAEDTAVYYCARDMAARRGDYYYYYGMDVWGPGTTVTVSS VL: DIVMTQSPLSLPVTPGEPASISCRSSQSLLNGIGYNFLDWYLQKPGQSPQLLIYLGSNRASGVPDRFSGSGSGTDFTLTISRVEAEDVGVYYCMHALQTPFTFGPGTKVDIK please.
103%

Also, 2H12 (antibody, IgG4, V domains shown, Identified as an IgG4/k antibody; also called MAb 2H12; 2H12 IgG4) VH: QVQLVESGGGVVQPGRSLRLSCAASGFTFSSYGMHWVRQAPGKGLEWVAVIWYDGTNKYYADSVKGRFTISRDNSKTTLYLQMNSLRAEDTAVYYCARDGAARRGDYYYYYGMDVWGQGTTVTVSS VL: DIVMTQSPLSLPVTPGEPASISCRSSQSLLRGHGYSYLDWYLQKPGQSPQLLIYLGSNRASGVPDRFSGSGSGTDFTLKISRVEAEDVGVYYCMQALQTPFTFGPGTKVDIK please.
89%
